- Test system: Staphylococcus epidermidis EPI1
- Experiment description: MIC, standard agar-dilution assay (Table II)
- Assay type: cell-based
- Set-up: unit not given here
Measure name: minimal inhibitory concentration (MIC)
Please give the numeric answer without any surrounding text.

Study these solved cases before continuing.
Molecule: CCC1OC(=O)CC(O)C(C)C(OC2OC(C)C(O)C(N(C)C)C2O)C(CC=O)CC(C)C(=O)C=CC(C)=CC1COC(=O)C(C)C (stereo not drawn) [Compound 18]
minimal inhibitory concentration (MIC): 0.25
--
Molecule: CCC1OC(=O)CC(O)C(C)C(OC2OC(C)C(O)C(N(C)C)C2O)C(CC=O)CC(C)C(=O)C=CC(C)=CC1COC(=O)CCCC(=O)OC (stereo not drawn) [Compound 72]
minimal inhibitory concentration (MIC): 0.25
--
Molecule: CCCCCCCC(=O)OCC1C=C(C)C=CC(=O)C(C)CC(CC=O)C(OC2OC(C)C(O)C(N(C)C)C2OC(C)=O)C(C)C(O)CC(=O)OC1CC (stereo not drawn) [Compound 25]
minimal inhibitory concentration (MIC): 0.25
--
Molecule: CCC1OC(=O)CC(O)C(C)C(OC2OC(C)C(O)C(N(C)C)C2OC(C)=O)C(CC=O)CC(C)C(=O)C=CC(C)=CC1COC(=O)c1ccc2ccccc2c1 (stereo not drawn) [Compound 58]
minimal inhibitory concentration (MIC): 0.25
--
Molecule: CCC1OC(=O)CC(O)C(C)C(OC2OC(C)C(O)C(N(C)C)C2OC(C)=O)C(CC=O)CC(C)C(=O)C=CC(C)=CC1COC(=O)Cc1cc(OC)ccc1OC (stereo not drawn) [Compound 62]
minimal inhibitory concentration (MIC): 0.125

## Input What value of minimal inhibitory concentration (MIC) has been recorded for this entry: CCC(=O)OCC1C=C(C)C=CC(=O)C(C)CC(CC=O)C(OC2OC(C)C(OC(=O)CC)C(N(C)C)C2OC(=O)CC)C(C)C(O)CC(=O)OC1CC (stereo not drawn) [Compound 8, 2',4',23-Tri-O-propionyl-OMT]
## Output 0.25

###

- Tested on: Streptococcus pyogenes C203
- Experiment description: MIC, standard agar-dilution assay (Table II)
- Assay type: cell-based
- Set-up: unit not given here
Catalogue of molecules with associated minimal inhibitory concentration (MIC)
Respond with the number and no other words.

Example results:
Molecule: CCC1OC(=O)CC(O)C(C)C(OC2OC(C)C(O)C(N(C)C)C2OC(C)=O)C(CC=O)CC(C)C(=O)C=CC(C)=CC1COC(=O)C(C)(C)C (stereo not drawn)
minimal inhibitory concentration (MIC): 0.125
--
Molecule: CCC1OC(=O)CC(O)C(C)C(OC2OC(C)C(O)C(N(C)C)C2OC(C)=O)C(CC=O)CC(C)C(=O)C=CC(C)=CC1COC(=O)Cc1ccc([N+](=O)[O-])cc1 (stereo not drawn)
minimal inhibitory concentration (MIC): 0.06
--
Molecule: CCC1OC(=O)CC(O)C(C)C(OC2OC(C)C(O)C(N(C)C)C2O)C(CC=O)CC(C)C(=O)C=CC(C)=CC1COC(=O)OC (stereo not drawn)
minimal inhibitory concentration (MIC): 0.25
--
Molecule: CCC1OC(=O)CC(O)C(C)C(OC2OC(C)C(O)C(N(C)C)C2OC(C)=O)C(CC=O)CC(C)C(=O)C=CC(C)=CC1COC(=O)Cc1cc(OC)ccc1OC (stereo not drawn)
minimal inhibitory concentration (MIC): 0.06
--
Molecule: CCC1OC(=O)CC(O)C(C)C(OC2OC(C)C(O)C(N(C)C)C2O)C(CC=O)CC(C)C(=O)C=CC(C)=CC1COS(=O)(=O)c1ccc(C)cc1 (stereo not drawn)
minimal inhibitory concentration (MIC): 0.125

Turning now to a further molecule:
## Input Record request: minimal inhibitory concentration (MIC) value, item CCCCC(=O)OCC1C=C(C)C=CC(=O)C(C)CC(CC=O)C(OC2OC(C)C(O)C(N(C)C)C2O)C(C)C(O)CC(=O)OC1CC (stereo not drawn)
## Output 0.25
